The reported measurements were obtained from patent US20240101668A1.

- SYSTEM: T1, huCLL1-K244-Avi-Tev-His (human, UniProt Q5QGZ9 65-265)
- T1 construct: extracellular domain
- T1 sequence (looked up): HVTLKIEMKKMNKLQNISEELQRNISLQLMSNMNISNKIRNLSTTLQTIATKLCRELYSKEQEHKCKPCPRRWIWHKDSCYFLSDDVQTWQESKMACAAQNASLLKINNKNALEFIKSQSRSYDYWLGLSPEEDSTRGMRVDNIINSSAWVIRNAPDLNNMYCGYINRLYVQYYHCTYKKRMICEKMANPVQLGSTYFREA
- MEASUREMENT_DESCRIPTION: BLI
MEASURED_METRIC: binding result

{"BINDER": "Polypeptide No. 167 (scFv, V domains shown, scFv) VH: QVQLVQSGAEVKKPGASVKVSCKASGYTFTSYYMHWVRQAPGQGLEWMGWINPNSGGTNYAQKFQGRVTMTRDTSTSTVYMELSSLRSEDTAVYYCARGTTGDDFDYWGQGTLVTVSS VL: DIQMTQSPSSLSASVGDRVTITCRASQDISTWLAWYQQKPGKAPKLLIYAASSLQSGVPSRFSGSGSGTDFTLTISSLQPEDFATYYCQQSYSIPPTFGPGTKVDIKR", "binding result": "binds"}
{"BINDER": "Polypeptide No. 164 (scFv, V domains shown, scFv) VH: QVQLVQSGAEVKKPGASVKVSCKASGYTFTAHYIHWVRQAPGQGLEWMGIINPNGGRTTYAQKFQGRVTMTRDTSTSTVYMELSSLRSEDTAVYYCARDSDFWSGYYSDYYYGMDVWGQGTTVTVSS VL: DIQMTQSPSSLSASVGDRVTITCQASQDISNFLNWYQQKPGKAPKLLIYATSTLQSGVPSRFSGSGSGTDFTLTISSLQPEDFATYYCQQSYTTEWTFGQGTKVEIKR", "binding result": "binds"}
{"BINDER": "Polypeptide No. 188 (scFv, V domains shown, scFv) VH: EVQLLESGGGLVQPGGSLRLSCAASGFTFSSYGMHWVRQAPGKGLEWVSYTSSSSSTIYYADSVKGRFTISRDNSKNTLYLQMNSLRAEDTAVYYCARGNVGDNWNDDEAFLGWGQGTLVTVSS VL: DIQMTQSPSSLSASVGDRVTITCQASQDISNYLNWYQQKPGKAPKLLIYDASNLETGVPSRFSGSGSGTDFTLTISSLQPEDFATYYCQQTYDTPYTFGQGTKLEIKR", "binding result": "binds"}
{"BINDER": "Polypeptide No. 194 (scFv, V domains shown, scFv) VH: QVQLVQSGAEVKKPGASVKVSCKASGVTFSNSGINWVRQAPGQGLEWMGWMNPASGDTGYAQKFQGRVTMTRDTSTSTVYMELSSLRSEDTAVYYCARGEYGAEYFQHWGQGTLVTVSS VL: DIQMTQSPSSLSASVGDRVTITCRASQSISSWLAWYQQKPGKAPKLLIYDASSLESGVPSRFSGSGSGTDFTLTISSLQPEDFATYYCQQSHSLPPTFGQGTRLEIKR", "binding result": "binds"}

Would you kindly share the measured binding result for Polypeptide No. 187 (scFv, V domains shown, scFv) VH: EVQLLESGGGLVQPGGSLRLSCAASGFTFSSYDMHWVRQAPGKGLEWVSSISSSSSYIYYADSVKGRFTISRDNSKNTLYLQMNSLRAEDTAVYYCARDIDDVAGDYWGQGTLVTVSS VL: DIQMTQSPSSLSASVGDRVTITCQASQDISNYLNWYQQKPGKAPKLLIYGASSLQSGVPSRFSGSGSGTDFTLTISSLQPEDFATYYCQQSYSTPFTFGQGTKLEIKR ? binds
